Examples of binders with documented IC95, Myostatin SMAD RGA follow.
Molecular target: ActRIIA and ActRIIB (on TGFB/SMAD SBE Reporter HEK293 cells) (human)
Sequence (chain, as listed by the source, chain 1 of 2): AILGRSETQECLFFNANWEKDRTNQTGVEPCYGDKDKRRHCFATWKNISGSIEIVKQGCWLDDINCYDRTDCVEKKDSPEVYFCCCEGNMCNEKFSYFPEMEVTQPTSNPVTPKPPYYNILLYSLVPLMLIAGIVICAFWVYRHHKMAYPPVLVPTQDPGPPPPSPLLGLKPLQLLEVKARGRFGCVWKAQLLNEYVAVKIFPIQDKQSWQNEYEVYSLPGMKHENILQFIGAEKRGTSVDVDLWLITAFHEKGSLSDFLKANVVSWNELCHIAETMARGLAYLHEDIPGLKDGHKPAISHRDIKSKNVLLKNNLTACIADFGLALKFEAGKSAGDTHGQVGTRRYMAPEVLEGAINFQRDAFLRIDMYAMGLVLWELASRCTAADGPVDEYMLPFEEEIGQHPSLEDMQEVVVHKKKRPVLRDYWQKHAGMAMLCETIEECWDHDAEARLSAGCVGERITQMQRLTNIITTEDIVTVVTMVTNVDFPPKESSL
Sequence (chain, as listed by the source, chain 2 of 2): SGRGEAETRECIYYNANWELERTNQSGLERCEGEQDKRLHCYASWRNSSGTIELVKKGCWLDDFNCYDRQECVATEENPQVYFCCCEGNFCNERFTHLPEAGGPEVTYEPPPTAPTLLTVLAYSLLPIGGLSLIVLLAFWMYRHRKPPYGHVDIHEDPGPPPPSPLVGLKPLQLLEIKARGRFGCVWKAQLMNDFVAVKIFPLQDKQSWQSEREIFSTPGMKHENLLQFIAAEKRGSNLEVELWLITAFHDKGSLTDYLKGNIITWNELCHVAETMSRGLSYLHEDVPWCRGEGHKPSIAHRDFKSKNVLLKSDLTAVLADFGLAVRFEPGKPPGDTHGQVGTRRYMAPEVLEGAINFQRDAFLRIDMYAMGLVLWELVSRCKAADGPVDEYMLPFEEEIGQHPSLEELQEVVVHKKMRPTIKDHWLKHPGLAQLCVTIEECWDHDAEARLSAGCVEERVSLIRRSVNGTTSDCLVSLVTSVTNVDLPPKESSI
Assay: cell-based or functional assay
# unit: nM | format: bare number

Antibody Ofaschlupfer (antibody, V domains shown, full-length IgG) VH: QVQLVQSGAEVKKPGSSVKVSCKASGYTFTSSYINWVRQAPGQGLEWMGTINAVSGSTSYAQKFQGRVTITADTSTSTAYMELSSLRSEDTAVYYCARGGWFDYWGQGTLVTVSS VL: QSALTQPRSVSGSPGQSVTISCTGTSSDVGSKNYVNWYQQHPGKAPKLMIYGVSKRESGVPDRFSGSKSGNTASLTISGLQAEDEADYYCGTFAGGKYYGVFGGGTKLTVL	55.2

Req: # IC95, Myostatin SMAD RGA lookup, item Bimagrumab (antibody, V domains shown) VH: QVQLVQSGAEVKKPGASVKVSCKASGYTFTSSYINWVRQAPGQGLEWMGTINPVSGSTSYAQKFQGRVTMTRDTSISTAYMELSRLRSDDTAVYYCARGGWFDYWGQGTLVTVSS VL: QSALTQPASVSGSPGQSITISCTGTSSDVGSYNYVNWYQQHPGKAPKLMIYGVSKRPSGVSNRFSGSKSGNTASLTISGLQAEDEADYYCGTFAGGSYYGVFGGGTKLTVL
Resp: 55.2

Req: # IC95, Myostatin SMAD RGA lookup, item Antibody Soidawürstle (antibody, V domains shown, full-length IgG; also called Soidawüsrstel) VH: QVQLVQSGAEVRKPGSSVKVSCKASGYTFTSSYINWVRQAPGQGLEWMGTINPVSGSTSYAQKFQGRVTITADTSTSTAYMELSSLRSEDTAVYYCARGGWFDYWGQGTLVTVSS VL: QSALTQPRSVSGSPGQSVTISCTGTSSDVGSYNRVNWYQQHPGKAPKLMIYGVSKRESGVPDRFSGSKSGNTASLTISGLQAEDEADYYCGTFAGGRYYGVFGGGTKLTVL
Resp: 35

Req: # IC95, Myostatin SMAD RGA lookup, item Antibody Schwardamaga (antibody, V domains shown, full-length IgG) VH: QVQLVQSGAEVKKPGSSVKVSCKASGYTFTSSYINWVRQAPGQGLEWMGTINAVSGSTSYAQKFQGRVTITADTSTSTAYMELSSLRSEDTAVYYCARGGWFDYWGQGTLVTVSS VL: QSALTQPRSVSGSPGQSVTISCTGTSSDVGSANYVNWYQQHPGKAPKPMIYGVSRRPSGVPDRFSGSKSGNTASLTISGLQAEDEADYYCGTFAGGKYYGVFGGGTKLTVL
Resp: 41.5

FYI, the data here is from patent US20250243286A1.
